# target.desc: T1, recombinant human CTGF-Fc protein (Creative Biomart) (human)
# T1 construct: Bought; also called human CTGF with a human IgG1 Fc Tag
# assay.text: SPR (Biacore)
# Method: The binding of exemplary lipocalin muteins to human (Creative Biomart), cynomolgus, rat (R&D Systems) and mouse CTGF (Abbexa) was determined by SPR using a Biacore instrument (Cytiva, formerly GE Healthcare). Some targets were fused to a human IgG1 Fc tag, and captured via the anti-human IgG antibody kit, others were directly immobilized. For some measurements, human CTGF with a human IgG1 Fc Tag or rat or murine CTGF without a tag were directly immobilized to a CM5 Chip. […]
# Lookup of reported kon keyed by entry
Give the value in M⁻¹ s⁻¹ but do not write M⁻¹ s⁻¹ after it.

binder	result.unit	kon
lipocalin mutein of SEQ ID NO: 24 (designed binder, also called hNGAL mutein) QDSTSDLIPAPPLSKVPLQQNFQDNQFQGKWYVVGVAGNAILRTDKQPAKMFATIYELKEDKSYDVTSVRFEAKSCKYTIKTFVPGSQPGEFTAGNIKSAPGQTSTLVRVVSTNYNQHAMVFFKHVSQNREIFVITLYGRTKELTSELKENFIRFSKSLGLPENHIVFPVPIDQCIDG	M⁻¹ s⁻¹	157000

Alright, here's another binder for you.
Query: Which measured kon value corresponds to lipocalin mutein of SEQ ID NO: 31 (designed binder, also called hNGAL mutein; not shown: C-terminal His-tag) QDSTSDLIPAPPLSKVPLQQNFQDNQFQGKWYVVGWAGNVKLREDKQPQKMSATIYELKEDKSYDVTEVVFEQKKCHYIIKTFVPGSQPGEFTAGDIKSPPGYTSSLVRVVSTNYNQHAMVFFKKVSQNREFFWITLYGRTKELTSELKENFIRFSKSLGLPENHIVFPVPIDQCIDG ?
Response: 195000
